ΔG values, listed per item
- Target Or System: pVHL19 (VCB complex: VHL with Elongin B and Elongin C) (Homo sapiens, UniProt P40337)
- Sequence (P40337 54-213): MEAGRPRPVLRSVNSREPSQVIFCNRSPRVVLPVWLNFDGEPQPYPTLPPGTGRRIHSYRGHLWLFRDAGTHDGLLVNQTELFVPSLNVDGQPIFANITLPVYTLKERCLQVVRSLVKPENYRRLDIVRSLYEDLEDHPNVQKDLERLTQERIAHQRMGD
- Sequence (Q15370 1-104 partner limits assumed): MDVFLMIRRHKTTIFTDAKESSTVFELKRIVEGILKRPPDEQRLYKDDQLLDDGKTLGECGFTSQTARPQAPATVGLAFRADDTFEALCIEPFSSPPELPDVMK
- Sequence (Q15369 17-112 partner limits assumed): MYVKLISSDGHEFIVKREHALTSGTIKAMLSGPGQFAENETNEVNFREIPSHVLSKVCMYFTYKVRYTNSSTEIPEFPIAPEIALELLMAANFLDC
- Assay Procedure: ITC titration against VCB, short VHL isoform
- Assay type: binding
- Condition Label: ITC, pVHL19
State just the number; it will be interpreted in kcal/mol.

Worked examples follow.
>  <Smiles Data>
Cc1ncsc1-c1ccc(CNC(=O)[C@@H]2C[C@@H](O)CN2C(=O)[C@@H](NC(=O)COCCOCCOCCOCC(=O)N[C@H](C(=O)N2C[C@H](O)C[C@H]2C(=O)NCc2ccc(-c3scnc3C)cc2)C(C)(C)C)C(C)(C)C)cc1

>  <Target Or System>
pVHL19 (VCB complex: VHL with Elongin B and Elongin C) (Homo sapiens, UniProt P40337)

>  <Units Of Measure>
kcal/mol

>  <ΔG>
-10.3

$$$$
>  <Smiles Data>
Cc1ncsc1-c1ccc(CNC(=O)[C@@H]2C[C@@H](O)CN2C(=O)[C@@H](NC(=O)COCCOCCOCCOCCOCCOCC(=O)N[C@H](C(=O)N2C[C@H](O)C[C@H]2C(=O)NCc2ccc(-c3scnc3C)cc2)C(C)(C)C)C(C)(C)C)cc1

>  <Target Or System>
pVHL19 (VCB complex: VHL with Elongin B and Elongin C) (Homo sapiens, UniProt P40337)

>  <Units Of Measure>
kcal/mol

>  <ΔG>
-10.9

$$$$
>  <Smiles Data>
Cc1ncsc1-c1ccc(CNC(=O)[C@@H]2C[C@@H](O)CN2C(=O)[C@@H](NC(=O)COCCOCCOCCOCCOCC(=O)N[C@H](C(=O)N2C[C@H](O)C[C@H]2C(=O)NCc2ccc(-c3scnc3C)cc2)C(C)(C)C)C(C)(C)C)cc1

>  <Target Or System>
pVHL19 (VCB complex: VHL with Elongin B and Elongin C) (Homo sapiens, UniProt P40337)

>  <Units Of Measure>
kcal/mol

>  <ΔG>
-10.2

$$$$

Note: attention shifts to another entry.
Would you mind telling me what ΔG value was observed for `Cc1ncsc1-c1ccc(CNC(=O)[C@H]2C[C@@H](O)CN2C(=O)[C@H](NC(=O)COCCOCCOCCOCCOCC(=O)N[C@H](C(=O)N2C[C@H](O)C[C@H]2C(=O)NCc2ccc(-c3scnc3C)cc2)C(C)(C)C)C(C)(C)C)cc1` ? -9.33
